Below, each of the sequences is paired with its reported apparent KD of MS2 coat protein value.
Tested on: MS2 coat protein
experiment: apparent KD of MS2 coat protein; higher = weaker reporter binding
experimental-parameters: Eterna round: R107; input ligand: none
reported-endpoint: apparent KD of MS2 coat protein (nM)

sequence-input	target-desc	reported-endpoint	value
AGACAUGAGGAUCACCCAUGUAGCAUGGAUACCAGAUGCAGAUUUAUCCCUUGGCAGCUGUGGUAAAGUGAUGCAUUGCUCCUAG [Exclusion - Theophylline A (Freestyle 6)]	MS2 coat protein	apparent KD of MS2 coat protein	22.6
AAGAACCAGACGGCCGCCACUGGCCAGACAGGGUUCAUGGAAACAUGAGGAUCACCCAUGUCUUCCAGGACCGGGUCUGAAGAGG [Esbiisin]	MS2 coat protein	apparent KD of MS2 coat protein	8.56
GUAUACAUGAGGAUCACCCAUGUACCAGAAGGAGCGCUGGAAACAGCAGGUAGGUCGCUGGUAGGUCCUCUAUCUAGACGUUCUU [EAA NP+V+V2 #6]	MS2 coat protein	apparent KD of MS2 coat protein	193
CACGGCCAUGAGGAUCACCCAUGGAAUAAUCGAGGACCGGUACGGCCGCCACUCGUGGACCGUGACCUGUACGAAAAGUGCAGGA	MS2 coat protein	apparent KD of MS2 coat protein	26.5
AAGGGACAUGAGGAUCACCCAUGUACCGAAGGAGCGGCAGAGAUGCCAGGUAGGUCGCGGUACUUGCCGGGUCAUUCAUGCAAAA [Teanbe]	MS2 coat protein	apparent KD of MS2 coat protein	18.8
GGGACAUCGGGAAGGAGCGCAUCCAAACCACACAUGAGGAUCACCCAUGUAUAAAUAUGCAUGCAGGUAGGUCGCCCGGUGUCUC [Ersoatus]	MS2 coat protein	apparent KD of MS2 coat protein	104
